Molecular target: CXCR4 (Homo sapiens)
Sequence (P61073 whole entry): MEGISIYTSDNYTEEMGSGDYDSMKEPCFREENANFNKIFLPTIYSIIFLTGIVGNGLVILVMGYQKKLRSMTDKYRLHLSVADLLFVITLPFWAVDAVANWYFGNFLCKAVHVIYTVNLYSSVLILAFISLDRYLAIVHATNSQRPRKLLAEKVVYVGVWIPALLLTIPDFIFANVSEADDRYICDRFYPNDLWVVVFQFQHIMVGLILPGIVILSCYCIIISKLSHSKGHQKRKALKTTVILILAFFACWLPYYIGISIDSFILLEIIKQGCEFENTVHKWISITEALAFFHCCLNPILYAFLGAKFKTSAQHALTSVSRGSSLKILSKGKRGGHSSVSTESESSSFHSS
Test: Chemotaxis assay using SUP B-15 cells
Assay type: cell-based
Design: A similar procedure was followed for chemotaxis using SUP B-15 cells; endogenous in cells; host or cells: SUP B-15 cells
Details: SUP-B15; Table 18, i1 loop; SUP B-15 cells; drug conc 1.0 uM; read-out: Max (% of)
Peptide text beside a SMILES is read from it. * marks the point of attachment. Palmitoyl = CCCCCCCCCCCCCCCC(=O)*
endpoint name: activity at 1 µM (%)
Response body: numeric value in %, unit text excluded.

Some solved cases for reference:
q: // fetch activity at 1 µM given entry CCCCCCCCCCCCCCCC(=O)N[C@@H](CCCCN)C(=O)N[C@@H](CCCCN)C(=O)N[C@@H](CC(C)C)C(=O)N[C@@H](CCCNC(=N)N)C(=O)N[C@@H](CO)C(=O)N[C@@H](CCSC)C(=O)N[C@H](C(=O)N[C@@H](CC(=O)O)C(=O)N[C@@H](CCCCN)C(=O)N[C@@H](Cc1ccc(O)cc1)C(N)=O)[C@@H](C)O [Compound 46] (Palmitoyl-KKLRSMTDKY-NH2)
a: 82.9

q: Answer with the recorded activity at 1 µM of CCCCCCCCCCCCCCCC(=O)N[C@@H](CCCCN)C(=O)N[C@@H](CCCCN)C(=O)N[C@@H](CC(C)C)C(=O)N[C@@H](CCCNC(=N)N)C(=O)N[C@@H](CO)C(=O)N[C@@H](CCSC)C(=O)N[C@H](C(=O)N[C@@H](CC(=O)O)C(=O)N[C@@H](CCCCN)C(=O)N[C@@H](Cc1ccc(O)cc1)C(=O)N[C@@H](CCCNC(=N)N)C(=O)N[C@@H](CC(C)C)C(=O)N[C@@H](Cc1cnc[nH]1)C(=O)N[C@@H](CC(C)C)C(N)=O)[C@@H](C)O [Compound 42] (Palmitoyl-KKLRSMTDKYRLHL-NH2) only.
a: 33.5

Turning now to a further record.
q: Fill in reported activity at 1 µM for this entry: CCCCCCCCCCCCCCCC(=O)N[C@@H](CCCCN)C(=O)N[C@@H](CCCCN)C(=O)N[C@@H](CC(C)C)C(=O)N[C@@H](CCCNC(=N)N)C(=O)N[C@@H](CO)C(=O)N[C@@H](CCSC)C(=O)N[C@H](C(=O)N[C@@H](CC(=O)O)C(=O)N[C@@H](CCCCN)C(=O)N[C@@H](Cc1ccc(O)cc1)C(=O)N[C@@H](CCCNC(=N)N)C(=O)N[C@@H](CC(C)C)C(=O)N[C@@H](Cc1cnc[nH]1)C(N)=O)[C@@H](C)O [Compound 43] (Palmitoyl-KKLRSMTDKYRLH-NH2)
a: 55.8
